system: HIV-1RF; experiment: XTT cytoprotection (cytopathicity) anti-HIV assay, CEM-SS cells; type: cell-based; details: Human immunodeficiency virus 1, CEM-SS, XTT cytopathicity assay; Table 4; read-out: Infection EC50 (Mean ± S.D., n = 6)
Property label: EC50
For clarity, give the value followed by its unit.

q: What measured EC50 goes with O=S1(=O)C[C@H](O)[C@H](O)CS1 (relative stereo) [NSC 624151, cis-1,1-dioxo[1,2]dithiane-4,5-diol] ?
a: 7.85 µM

###

Recorded EC50 values for a group of compounds are listed next.
test system: HIV-1RF; assay: XTT cytoprotection (cytopathicity) anti-HIV assay, CEM-SS cells; assay type: cell-based; settings: Table 5; read-out: EC50 Duplicates
The answer is to be given in µM; state only the numeric part.

# Compound, Property label, Reading unit, Recorded result
records = [
    ("O=S1(=O)C[C@H](O)[C@H](O)CS1 (relative stereo) [NSC 624151, cis-1,1-dioxo[1,2]dithiane-4,5-diol]", "EC50", "µM", 14.9),
]

Would you kindly look at the next entry?
q: What measured EC50 goes with "Cc1cn([C@H]2C[C@H](N=[N+]=[N-])[C@@H](CO)O2)c(=O)[nH]c1=O" ?
a: 0.0057
